# protocol.text: yeast display, Sf9 membrane polyspecificity reagent, FACS + sequencing; frameworks hold sequencing errors
measure.name: polyreactivity (PSR sort gate)

seq.text | reported.measurement
QVQLVESGGGLVQAGGSLRLSCAASGSIFKYYAMGWYRQAPGKERELVAAISVRGSRTYYADSVKGRFTISRDNAKNTVYLQMNSLKPEDTAVYYCAADGGYIPPYGYDYWGQGTQVTVSS | high polyreactivity
QVQLVESGGGLVQAGGSLRLSFAASGRTFYYYASRWYRQAPGKERELVARIRSGGSTNYADSVKGRFTISRDNAKNTFYLQMNSLKPEDTAVYYCNALGAKGYVKGFDYRGQGTQVTVSS | low polyreactivity
QVQLVESGGGLVQAGGSLRLICAASGFTFLTYAMGWYRQAPGKERELVAAIDSGDSTKYADSVKGRFTISRDNAKYTVYLQMNSLKPEDTAVYYCNASRRYHVLAPYDYWGQGTQVTVSS | low polyreactivity
QVQLVESCGGLVQAGGSHRLSCAASGRTFRYYAMGWYRQAPWKERELVAAIRRGGSTTYADSVKVRFTISRDNAKNTVYLQMNSLKPEDTAVYYCAARYPGTRGDGYWGQGTQVTVSS | high polyreactivity
QVHLVESGGVLVQAGGSLRLSCAASGSIYESYVMGWYRQAPRKERELVASISSGGSTYYADSVKGRFTISRDNAKNTVYFQNNSLKQEDTAGYYCAANYDGGYLDYEAGYRLEYDFWGQGTQVTVSS | low polyreactivity
QVQLVESGGGLVQAGGILRLSCASSGRTFAWYAMGWYRPAPGKERELVAAITTRGSGTYYADSVKGRFTISRDNAKNTVYLQMNSLKPEDTAVYYGAKDPITATTLDERVYYWGQGTQLTVSS | low polyreactivity
QVHLVESGGGLVQAGGSLRLSCAASGYTFGHYAMGWYRQAPGKERELVAVITSGGSTNYADSVKGRFTISRDNAKNTVYLQMNSLKPEDTAVYYCAADLYFYYVWIRDYWGQGTQVTVSS | low polyreactivity
QVQLVESGVGLVQAGGSLSLSCAASGSTFPKYAMGWYRQAPGKERELVAAISGSGGSTYYADSVKGRFTISRDNAKNTVYLQMNSLKREDTAVYYCAVAWNVRGVGARQRYIYGYWGQGTQVTVSS | high polyreactivity
QVQLVESGGGLVQAGGSLRLSCAASGSIVYSYAMGWYRQAPGKERELVATISWSGGRTNYADSVKGRITISRDTAKNSVYLLMNSLKPVDTAVYYCAADIPPWGGDYWGQGTQVTVSS | low polyreactivity
QVQLVESGGGLVQAGGSLRLSCAASGRIFDYNVMGWYRQPPGKESELVAAISWDGDSTYYADSVKGRFTISRDNAKNSVYLQMKSLKPEDTAVYYCNRVEGGTSWADEMNYWGQGTQVTVSS | low polyreactivity
QVQLVESGGGLVQAGGSLRLSCAASGITFPGYAMGSYRQAPGKERELVAVIRKSGTSTYYADSVKGRFTISRDNAKNTVYLQMNSLKPEDTAVYYCAAGGPSTLDDYWGQGTQVTVSS | low polyreactivity
